Test system: LPS-stimulated IL-1β release from PBMCs of FCAS patients
Experiment: LPS-stimulated IL-1β release from PBMCs of patients with FCAS
Type: cell-based, human
Conditions: Homo sapiens, PBMC; PBMCs from FCAS patients, 10 ng/ml LPS, 24 hours, compound 0.03-30 μM, ELISA, FIG. 1A; read-out: IC50 for inhibition of LPS-stimulated IL-1β release
Test Readout: IC50

What does the record list as IC50 for CCO[C@@H]1OC(=O)C[C@@H]1NC(=O)[C@@H]1CCCN1C(=O)[C@@H](NC(=O)c1ccc(N)c(Cl)c1)C(C)(C)C ? ~1000 nM
